Biological target: T1, cJun bZIP (human, UniProt P05412 252-308, limits assumed)
T1 chain: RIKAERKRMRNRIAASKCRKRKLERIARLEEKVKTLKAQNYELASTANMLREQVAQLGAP
Experiment: cell-based or functional assay
Bridge positions count the residues as written; N and C are the ends. Ends that are not written are not given here.
Hi there, I'd appreciate the recorded IC50 CD for every entry that follows.
State the answer as a number, implicitly in µM.

Kindly note the recorded IC50 CD for Ac-EAKELVDEEDVLEEEIEQLEERNYALRKEIEDLQKQ-NH2 (lactam 3-7, Synthetic, NΔ20 CΔ7; also called cyclised form of 14/15) [HingeW variant peptide 15] , which is 81.1

Kindly note the recorded IC50 CD for Ac-EAKELVDEEDVLEEEIEQLEERNYALRKEIEDLQKQ-NH2 (Synthetic, NΔ20 CΔ7; also called linear form of 14/15) [HingeW variant peptide 14] , which is 100

Kindly note the recorded IC50 CD for Ac-EAEELVVEEDVLEEEIEQLEERNYALRKEIEDLQKQ-NH2 (Synthetic, NΔ20 CΔ7) [HingeW variant peptide 11] , which is 82.1

Kindly note the recorded IC50 CD for Ac-EAEELVVEEDVLEEEIEQLEERNYALRKEIEDLQ-NH2 (lactam 28-32 (inferred), Synthetic, NΔ20 CΔ9; also called cyclised form of 28/29) [HingeW variant peptide 29] , which is 140

Kindly note the recorded IC50 CD for Ac-EAEELVVEEDVLEEEIEQLEEKNKALKDEIEDLQKQY-NH2 (lactam 24-28 (inferred), Synthetic, NΔ20 CΔ7; also called cyclised form of 20/21) [HingeW variant peptide 21] , which is 94.1

Kindly note the recorded IC50 CD for Ac-EAEELVVEEDVLEEEIEQLEERNYALRKEIEDL-NH2 (Synthetic, NΔ20 CΔ10) [HingeW variant peptide 25] , which is 1210

Kindly note the recorded IC50 CD for Ac-LVVEEDVLEEEIEQLEERNYALRKEIEDLQKQLEKL-NH2 (Synthetic, NΔ24 CΔ3) [Peptide 5] , which is 78.2

Kindly note the recorded IC50 CD for Ac-EAEELVVEEKVLEDEIEQLEERNYALRKEIEDLQKQ-NH2 (Synthetic, NΔ20 CΔ7; also called linear form of 16/17) [HingeW variant peptide 16] , which is 114

Kindly note the recorded IC50 CD for EDVLEEEIEQLEERNYALRKEIEDLQKQLEKLGAP-NH2 (NΔ28; also called LZ-only portion of the HingeW molecule) [Peptide 6] , which is 130

Kindly note the recorded IC50 CD for Ac-LVVEEDVLEEEIEQLEEKNKALKDEIEDLQKQLEKLY-NH2 (also: table prints a different, shorter sequence for 7/8, also called linear form of 7/8) [HingeW variant peptide 7] , which is 83.9

Kindly note the recorded IC50 CD for Ac-LARENEELEKEAEELVVEEDVLEEEIEQLEERNYALRKEIEDLQKQLEKL-NH2 (Synthetic, NΔ10 CΔ3; also called peptide 2) [HingeW peptide variant 2] , which is 16.6
